- Tested on: SK-Mel-28 Melanoma
- Protocol Description: Cytotoxicity (growth inhibition), SK-Mel-28
- Measurement Conditions: sk-mel-28 cells
Quantity: pIC50
Keep it numeric: pIC50 is minus log10 of the concentration in mol/L.

Prompt: Please report the recorded pIC50 for COC(=O)c1ccc([O-])cc1.COC(=O)c1ccc([O-])cc1.[Ti+4].c1cc[cH-]c1.c1cc[cH-]c1 .
Completion: 5.80

---

- System: UCLA-P3 Lung Carcinoma
- Protocol Description: Cytotoxicity (growth inhibition), UCLA-P3
- Measurement Conditions: ucla-p3 cells
Quantity: pIC50
Keep it numeric: pIC50 is minus log10 of the concentration in mol/L.

Prompt: Hello, I am looking for reported pIC50 with UCLA-P3 Lung Carcinoma for COC(=O)c1ccc([O-])cc1.COC(=O)c1ccc([O-])cc1.[Ti+4].c1cc[cH-]c1.c1cc[cH-]c1 . Could you help?
Completion: 5.51

---

- System: H-322 Lung Carcinoma
- Protocol Description: Cytotoxicity (growth inhibition), H-322
- Measurement Conditions: h-322 cells
- Text: The value of the ratio Ti/Pt represents the relative activity of TPE as compared with that of cis-platinum. The excipient can serve as an agent for promoting absorption of the medicament by the body or as formulation auxiliary, sweetener, flavouring agent, colourant or preservative. […] The novel titanocene derivatives, according to the present invention, can be prepared from common chemical reagents using standard equipment. […]
Quantity: cytotoxicity (log.)

Prompt: Please report the recorded cytotoxicity (log.) for C[N+](C)(C)CCOC(=O)c1ccc([O-])cc1.C[N+](C)(C)CCOC(=O)c1ccc([O-])cc1.[Ti+4].c1cc[cH-]c1.c1cc[cH-]c1 .
Completion: -4.00 log. (M)

Prompt: Please answer likewise for COC(=O)c1ccc([O-])cc1.COC(=O)c1ccc([O-])cc1.[Ti+4].c1cc[cH-]c1.c1cc[cH-]c1
Completion: -6.20 log. (M)

Prompt: Please answer likewise for CCOC(=O)c1ccc([O-])cc1.CCOC(=O)c1ccc([O-])cc1.[Ti+4].c1cc[cH-]c1.c1cc[cH-]c1
Completion: -5.80 log. (M)

Prompt: Please answer likewise for COCCOC(=O)c1ccc([O-])cc1.COCCOC(=O)c1ccc([O-])cc1.[Ti+4].c1cc[cH-]c1.c1cc[cH-]c1
Completion: -4.89 log. (M)

---

- Test system: Capan 1 Pancreas Carcinoma
- Protocol Description: Cytotoxicity (growth inhibition), Capan 1
- Measurement Conditions: capan 1 cells
Quantity: IC50 (nM)
Reply numerically in nM, unit not repeated.

Prompt: Please report the recorded IC50 for COC(=O)c1ccc([O-])cc1.COC(=O)c1ccc([O-])cc1.[Ti+4].c1cc[cH-]c1.c1cc[cH-]c1 .
Completion: 390

---

- Tested on: Molt-4 T-cell Leukemia
- Protocol Description: Cytotoxicity (growth inhibition), Molt-4
- Measurement Conditions: molt-4 cells
- Description: The value of the ratio Ti/Pt represents the relative activity of TPE as compared with that of cis-platinum. The excipient can serve as an agent for promoting absorption of the medicament by the body or as formulation auxiliary, sweetener, flavouring agent, colourant or preservative. […] The novel titanocene derivatives, according to the present invention, can be prepared from common chemical reagents using standard equipment. […]
Quantity: cytotoxicity (log.)

Prompt: Please report the recorded cytotoxicity (log.) for COC(=O)c1ccc([O-])cc1.COC(=O)c1ccc([O-])cc1.[Ti+4].c1cc[cH-]c1.c1cc[cH-]c1 .
Completion: -6.00 log. (M)

Prompt: Please answer likewise for COCCOCCOC(=O)c1ccc([O-])cc1.COCCOCCOC(=O)c1ccc([O-])cc1.[Ti+4].c1cc[cH-]c1.c1cc[cH-]c1
Completion: -4.00 log. (M)

Prompt: Please answer likewise for COCCOC(=O)c1ccc([O-])cc1.COCCOC(=O)c1ccc([O-])cc1.[Ti+4].c1cc[cH-]c1.c1cc[cH-]c1
Completion: -7.00 log. (M)

Prompt: Please answer likewise for CCOC(=O)c1ccc([O-])cc1.CCOC(=O)c1ccc([O-])cc1.[Ti+4].c1cc[cH-]c1.c1cc[cH-]c1
Completion: -7.00 log. (M)

Prompt: Please answer likewise for C[N+](C)(C)CCOC(=O)c1ccc([O-])cc1.C[N+](C)(C)CCOC(=O)c1ccc([O-])cc1.[Ti+4].c1cc[cH-]c1.c1cc[cH-]c1
Completion: -4.00 log. (M)

---

Would you kindly list cytotoxicity (log.) for each of these compounds?
- System: MCF-7 Breast Cancer
- Protocol Description: Cytotoxicity (growth inhibition), MCF-7
- Measurement Conditions: mcf-7 cells

Prompt: Please report the recorded cytotoxicity (log.) for COC(=O)c1ccc([O-])cc1.COC(=O)c1ccc([O-])cc1.[Ti+4].c1cc[cH-]c1.c1cc[cH-]c1 [TPE] .
Completion: -5.70 log. (M)

Prompt: Please answer likewise for CCOC(=O)c1ccc([O-])cc1.CCOC(=O)c1ccc([O-])cc1.[Ti+4].c1cc[cH-]c1.c1cc[cH-]c1 [TEE-1]
Completion: -5.80 log. (M)

Prompt: Please answer likewise for C[N+](C)(C)CCOC(=O)c1ccc([O-])cc1.C[N+](C)(C)CCOC(=O)c1ccc([O-])cc1.[Ti+4].c1cc[cH-]c1.c1cc[cH-]c1 [TCE]
Completion: -4.30 log. (M)

Prompt: Please answer likewise for COCCOC(=O)c1ccc([O-])cc1.COCCOC(=O)c1ccc([O-])cc1.[Ti+4].c1cc[cH-]c1.c1cc[cH-]c1 [TMEM]
Completion: -4.89 log. (M)

---

- Test system: HT-29 Colon Carcinoma
- Protocol Description: Cytotoxicity (growth inhibition), HT-29
- Measurement Conditions: ht-29 cells
Quantity: pIC50
Keep it numeric: pIC50 is minus log10 of the concentration in mol/L.

Prompt: Hello, I am looking for reported pIC50 with HT-29 Colon Carcinoma for COC(=O)c1ccc([O-])cc1.COC(=O)c1ccc([O-])cc1.[Ti+4].c1cc[cH-]c1.c1cc[cH-]c1 . Could you help?
Completion: 5.41

---

Would you kindly list cytotoxicity (log.) for each of these molecules?
- Tested on: HT-29 Colon Carcinoma
- Protocol Description: Cytotoxicity (growth inhibition), HT-29
- Measurement Conditions: ht-29 cells

Prompt: Please report the recorded cytotoxicity (log.) for CCOC(=O)c1ccc([O-])cc1.CCOC(=O)c1ccc([O-])cc1.[Ti+4].c1cc[cH-]c1.c1cc[cH-]c1 [TEE-1] .
Completion: -5.20 log. (M)

Prompt: Please answer likewise for COC(=O)c1ccc([O-])cc1.COC(=O)c1ccc([O-])cc1.[Ti+4].c1cc[cH-]c1.c1cc[cH-]c1 [TPE]
Completion: -5.41 log. (M)

Prompt: Please answer likewise for C[N+](C)(C)CCOC(=O)c1ccc([O-])cc1.C[N+](C)(C)CCOC(=O)c1ccc([O-])cc1.[Ti+4].c1cc[cH-]c1.c1cc[cH-]c1 [TCE]
Completion: -4.00 log. (M)

Prompt: Please answer likewise for COCCOC(=O)c1ccc([O-])cc1.COCCOC(=O)c1ccc([O-])cc1.[Ti+4].c1cc[cH-]c1.c1cc[cH-]c1 [TMEM]
Completion: -4.60 log. (M)

---

- Tested on: HMEC Normal Human Mammary
- Protocol Description: Cytotoxicity (growth inhibition), HMEC
- Measurement Conditions: human, hmec cells
Quantity: CC50 (µM)
Reply numerically in µM, unit not repeated.

Prompt: Please report the recorded CC50 for COC(=O)c1ccc([O-])cc1.COC(=O)c1ccc([O-])cc1.[Ti+4].c1cc[cH-]c1.c1cc[cH-]c1 .
Completion: 3.1

---

- Test system: Capan 1 Pancreas Carcinoma
- Protocol Description: Cytotoxicity (growth inhibition), Capan 1
- Measurement Conditions: capan 1 cells
Quantity: cytotoxicity (log.)

Prompt: Hello, I am looking for reported cytotoxicity (log.) with Capan 1 Pancreas Carcinoma for COCCOC(=O)c1ccc([O-])cc1.COCCOC(=O)c1ccc([O-])cc1.[Ti+4].c1cc[cH-]c1.c1cc[cH-]c1 [TMEM] . Could you help?
Completion: -4.89 log. (M)

Prompt: Please answer likewise for COC(=O)c1ccc([O-])cc1.COC(=O)c1ccc([O-])cc1.[Ti+4].c1cc[cH-]c1.c1cc[cH-]c1 [TPE]
Completion: -6.41 log. (M)

Prompt: Please answer likewise for CCOC(=O)c1ccc([O-])cc1.CCOC(=O)c1ccc([O-])cc1.[Ti+4].c1cc[cH-]c1.c1cc[cH-]c1 [TEE-1]
Completion: -5.51 log. (M)

Prompt: Please answer likewise for C[N+](C)(C)CCOC(=O)c1ccc([O-])cc1.C[N+](C)(C)CCOC(=O)c1ccc([O-])cc1.[Ti+4].c1cc[cH-]c1.c1cc[cH-]c1 [TCE]
Completion: -4.00 log. (M)
